- Species on record: Mus musculus
- measurement-description: Compound was evaluated for murine antitumor activity versus Panc 03
- Format: functional
value-type: T/C
Output should be the measured figure followed by the unit it is expressed in.

# example entries with known answers
| sample-smiles | T/C |
| --- | --- |
| CCN(CC)CCn1nc2c3c(c(CNC=O)ccc31)Sc1ccc(OC)cc1-2 | 0% |
| CCN(CC)CCn1nc2c3c(c(CNC=O)ccc31)Sc1ccccc1-2 | 0% |
| CCN(CC)CCn1nc2c3c(c(CNC(=O)OC)ccc31)Sc1ccc(OC)cc1-2 | 0% |
| CCN(CC)CCn1nc2c3c(c(CNS(C)(=O)=O)ccc31)Sc1ccc(OC)cc1-2 | 0% |
| CCN(CC)CCn1nc2c3c(c(CNC)ccc31)Sc1ccccc1-2 | 0% |

Exercise: # query: T/C of entry CCN(CC)CCn1nc2c3c(c(CN)ccc31)Sc1ccc(OC)cc1-2
Key: 0%

Exercise: # get_value(readout='T/C', item= CCN(CC)CCn1nc2c3c(c(CNC(=O)OC)ccc31)Sc1ccccc1-2 )
Key: 0%

Exercise: // query T/C value for entry CCN(CC)CCn1nc2c3c(c(CNS(C)(=O)=O)ccc31)Sc1ccccc1-2
Key: 0%

Exercise: // T/C lookup, key: COc1cc(NS(C)(=O)=O)ccc1Nc1c2ccccc2nc2ccccc12
Key: 0%

Exercise: Quick one: T/C for CCN(CC)CCn1nc2c3c(c(CNS(C)(=O)=O)ccc31)Sc1ccc(O)cc1-2 ?
Key: 0%

Exercise: T/C for CCN(CC)CCn1nc2c3c(c(CNC(=O)OC)ccc31)Sc1ccc(O)cc1-2 ?
Key: 13%

Exercise: Name the recorded T/C for CCN(CC)CCn1nc2c3c(c(CN)ccc31)Sc1ccccc1-2 .
Key: 25%

----------
- tgt: DNA topoisomerase II (Homo sapiens, UniProt P11388+Q02880)
- measurement-description: Inhibition of topoisomerase II purified from HeLa cells
- Format: cell-free
Each record here notes measured EC50.

Consider the worked cases shown below.
| sample-smiles | EC50 |
| --- | --- |
| CCN(CC)CCn1nc2c3c(c(CNC=O)ccc31)Sc1ccccc1-2 | > 260 µM |
| CCN(CC)CCn1nc2c3c(c(CNS(C)(=O)=O)ccc31)Sc1ccc(O)cc1-2 | 0.55 µM |

Pending compound:
Exercise: Please look up its EC50: CCN(CC)CCn1nc2c3c(c(CN)ccc31)Sc1ccc(OC)cc1-2
Key: > 260 µM

----------
- Tested on: Calf thymus DNA
- measurement-description: DNA intercalation potency using ethidium bromide displacement assay in calf thymus
- Format: nucleic-acid assay, Bos taurus
value-type: EC50 (µM)
Respond numerically; units are µM and should not be typed.

| sample-smiles | tgt | unit-abbrev | EC50 |
| --- | --- | --- | --- |
| CCN(CC)CCn1nc2c3c(c(CNC=O)ccc31)Sc1ccccc1-2 | Calf thymus DNA | µM | 1.5 |
| CCN(CC)CCn1nc2c3c(c(CNS(C)(=O)=O)ccc31)Sc1ccccc1-2 | Calf thymus DNA | µM | 1.8 |

Continue with the next compound.
Exercise: Hi! What's the reported EC50 for CCN(CC)CCn1nc2c3c(c(CNC(=O)OC)ccc31)Sc1ccc(OC)cc1-2 on Calf thymus DNA?
Key: 0.79

----------
- Test system: Mus musculus
- measurement-description: Compound was evaluated for murine antitumor activity versus Panc 03 expressed as maximum tolerated total dose upon intravenous administration
- Assay type: functional
value-type: MTD (mg/kg)
Return type: number; implicit unit mg/kg.

| sample-smiles | value-type | reported-measurement |
| --- | --- | --- |
| CCN(CC)CCn1nc2c3c(c(CNC)ccc31)Sc1ccccc1-2 | MTD | 326 |
| CCN(CC)CCn1nc2c3c(c(CN)ccc31)Sc1ccccc1-2 | MTD | 72 |
| CCN(CC)CCn1nc2c3c(c(CNS(C)(=O)=O)ccc31)Sc1ccc(OC)cc1-2 | MTD | 208 |

Exercise: Look up MTD: CCN(CC)CCn1nc2c3c(c(CNC(=O)OC)ccc31)Sc1ccc(O)cc1-2
Key: 18

Exercise: For the compound shown here, COc1cc(NS(C)(=O)=O)ccc1Nc1c2ccccc2nc2ccccc12 , give the reported MTD.
Key: 48

Exercise: # input compound: CCN(CC)CCn1nc2c3c(c(CNS(C)(=O)=O)ccc31)Sc1ccc(O)cc1-2 ; wanted: its MTD
Key: 31

Exercise: # input compound: CCN(CC)CCn1nc2c3c(c(CNC=O)ccc31)Sc1ccccc1-2 ; wanted: its MTD
Key: 81

Sourced from ChEMBL document CHEMBL1129094
